- system.tested: mMASP-2 (Mus musculus (Mouse), UniProt Q91WP0)
- Sequence (Q91WP0 20-685): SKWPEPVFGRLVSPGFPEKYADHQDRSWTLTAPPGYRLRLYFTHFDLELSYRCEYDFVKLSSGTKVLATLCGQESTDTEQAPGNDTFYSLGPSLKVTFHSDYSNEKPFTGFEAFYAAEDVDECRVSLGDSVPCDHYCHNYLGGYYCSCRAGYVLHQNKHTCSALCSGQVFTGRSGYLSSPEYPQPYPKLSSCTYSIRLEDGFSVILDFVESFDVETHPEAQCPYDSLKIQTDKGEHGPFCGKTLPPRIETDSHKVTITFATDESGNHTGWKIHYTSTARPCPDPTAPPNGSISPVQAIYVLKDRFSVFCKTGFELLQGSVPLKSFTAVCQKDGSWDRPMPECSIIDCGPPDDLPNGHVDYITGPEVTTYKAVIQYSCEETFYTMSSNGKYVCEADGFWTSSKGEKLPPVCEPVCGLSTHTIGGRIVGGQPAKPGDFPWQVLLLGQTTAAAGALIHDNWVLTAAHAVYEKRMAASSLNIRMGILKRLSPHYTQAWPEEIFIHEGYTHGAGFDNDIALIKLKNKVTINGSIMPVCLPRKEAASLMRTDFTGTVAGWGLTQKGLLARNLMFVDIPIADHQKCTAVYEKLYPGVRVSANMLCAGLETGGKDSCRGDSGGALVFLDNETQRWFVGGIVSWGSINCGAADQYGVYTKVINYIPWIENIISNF
- protocol.summary: Enzymatic inhibition of mMASP-2
- Assay type: biochemical
- particulars: read-out: mMASP-2 Ki
pKi: −log10 of the molar value. Counter-ions that a name gives are not always drawn.
endpoint: pKi

Requested field: pKi. Item: C[C@H](NC(=O)[C@H]1C[C@H](c2ccccc2)CN1)C(=O)NCc1cc(Cl)cc(Cl)c1O [compound 1395, Trifluoroacetate]
5.00 to 5.60

Requested field: pKi. Item: C[C@@H](C(=O)NCc1ccc2c(N)nccc2c1)N(C)C(=O)[C@H](N)CCc1cccc(C(F)(F)F)c1 [compound 1139, Dihydrochloride]
> 5.00

Requested field: pKi. Item: Cc1nc(N)ccc1CNC(=O)[C@H](C)NC(=O)[C@H]1C[C@H](Cc2cccc(C(F)(F)F)c2)C(=O)N1 [compound 1320, Di-trifluoroacetate salt]
5.60 to 6.30

Requested field: pKi. Item: C[C@H](NC(=O)[C@@H](CCc1ccccc1)NCc1ccc(-c2nnn[nH]2)cc1)C(=O)NCc1ccc(C(=N)N)cc1 [compound 1233]
> 6.30

Requested field: pKi. Item: Cc1cc(Cl)cc(CNC(=O)[C@H](C)NC(=O)[C@H]2C[C@H](Cc3ccc(Br)cc3)CN2)c1O [compound 1374, Hydrochloride]
> 6.30

Requested field: pKi. Item: Cc1nc(N)ccc1CNC(=O)[C@H](C)NC(=O)[C@H]1C[C@H](Cc2ccc(F)cc2)CN1 [compound 1447, Di-trifluoroacetate salt]
> 6.30

* * *

- system.tested: mMASP-2 (Mus musculus (Mouse), UniProt Q91WP0)
- protocol.summary: Enzymatic inhibition of mMASP-2
- Assay type: biochemical
- particulars: read-out: mMASP-2 Ki
Counter-ions that a name gives are not always drawn.
endpoint: Ki

Requested field: Ki. Item: `C[C@H](NC(=O)[C@H]1C[C@H](c2ccccc2)CN1)C(=O)NCc1cnc2cccc(Cl)c2c1`
2500 to 10000 nM

Requested field: Ki. Item: `Cc1cccc([C@@H]2CCN[C@@H](C(=O)N[C@@H](C)C(=O)NCc3ccc(C(=N)N)cc3)C2)c1`
< 500 nM

Requested field: Ki. Item: Cc1ccccc1CN1CCN[C@@H](C(=O)N[C@@H](C)C(=O)NCc2ccc(N)nc2C)C1 [compound 1348, Dihydrochloride]
< 500 nM

Requested field: Ki. Item: Cc1nc(N)ccc1CNC(=O)[C@H](C)NC(=O)[C@H]1C[C@H](Cc2nc3cc(Cl)ccc3s2)CN1 [compound 1460, Di-trifluoroacetate salt]
< 500 nM

* * *

- system.tested: MASP-2 (CCP1-CCP2-SP) (Homo sapiens (Human), UniProt O00187)
- Sequence (O00187 445-686): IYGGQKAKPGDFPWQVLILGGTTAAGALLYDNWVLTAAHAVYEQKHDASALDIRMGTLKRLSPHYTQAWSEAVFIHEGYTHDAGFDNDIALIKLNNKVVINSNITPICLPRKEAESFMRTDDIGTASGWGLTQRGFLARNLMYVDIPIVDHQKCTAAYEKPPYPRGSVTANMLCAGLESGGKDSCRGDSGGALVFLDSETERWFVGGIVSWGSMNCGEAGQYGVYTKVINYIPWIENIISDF
- protocol.summary: biochemical
- Type: biochemical
- particulars: selectivity for MASP-2 inhibition versus thrombin
Where a name gives a salt, the structure may show the parent alone.
endpoint: MASP-2 vs. thrombin selectivity

// solved cases for MASP-2 vs. thrombin selectivity follow
| molecule | system.tested | MASP-2 vs. thrombin selectivity |
| --- | --- | --- |
| C[C@H](NC(=O)[C@@H](CCc1ccccc1)NCCc1cccc(O)c1)C(=O)NCc1ccc(C(=N)N)cc1 [compound 1330, Di-trifluoroacetate salt] | MASP-2 (CCP1-CCP2-SP) (Homo sapiens (Human), UniProt O00187) | *** (≥25 to <100-fold) |
| C[C@H](NC(=O)[C@H]1C[C@H](c2ccccc2)CN1)C(=O)NCc1ccc(C(=N)N)c(F)c1 [compound 1300, Di-trifluoroacetate salt] | MASP-2 (CCP1-CCP2-SP) (Homo sapiens (Human), UniProt O00187) | *** (≥25 to <100-fold) |
| C[C@H](NC(=O)[C@H]1C[C@H](c2ccccc2)CN1)C(=O)NCc1cnc2[nH]cc(Cl)c2c1 [compound 1329, Dihydrochloride] | MASP-2 (CCP1-CCP2-SP) (Homo sapiens (Human), UniProt O00187) | * (≥1.0 to <5.0-fold) |
| Cc1nc(N)ccc1CNC(=O)[C@H](C)NC(=O)[C@H]1C[C@@H](C(C)c2ccccc2)CN1 (mixture of isomers) [compound 1344, Dihydrochloride] | MASP-2 (CCP1-CCP2-SP) (Homo sapiens (Human), UniProt O00187) | **** (≥100-fold) |

Requested field: MASP-2 vs. thrombin selectivity. Item: Cc1nc(N)ccc1CNC(=O)[C@H](C)NC(=O)[C@@H](CCc1ccccc1)NCCCc1cccc(O)c1 [compound 1319, Dihydrochloride salt]
** (≥5.0 to <25-fold)

Requested field: MASP-2 vs. thrombin selectivity. Item: C[C@H](NC(=O)[C@H]1C[C@H](Cc2ccccc2)CN1)C(=O)NCc1ccc(C(=N)N)cc1 [compound 1306, Dihydrochloride]
* (≥1.0 to <5.0-fold)

Requested field: MASP-2 vs. thrombin selectivity. Item: C[C@H](NC(=O)[C@H]1C[C@H](Cc2ccccc2)CN1)C(=O)NCc1cnc2c(c1)c(Cl)cn2C [compound 1450, Dihydrochloride]
**** (≥100-fold)

Requested field: MASP-2 vs. thrombin selectivity. Item: Cc1cc(Cl)cc(CNC(=O)[C@H](C)NC(=O)[C@H](N)CCc2ccccc2)c1O [compound 1299, Hydrochloride]
**** (≥100-fold)
